Molecular target: protein kinase D1 (PKD1) (Homo sapiens)
Construct: This assay is performed with full length wild-type enzyme that is expressed and purified from Sf9 insect cells
Sequence (Q15139 1-912): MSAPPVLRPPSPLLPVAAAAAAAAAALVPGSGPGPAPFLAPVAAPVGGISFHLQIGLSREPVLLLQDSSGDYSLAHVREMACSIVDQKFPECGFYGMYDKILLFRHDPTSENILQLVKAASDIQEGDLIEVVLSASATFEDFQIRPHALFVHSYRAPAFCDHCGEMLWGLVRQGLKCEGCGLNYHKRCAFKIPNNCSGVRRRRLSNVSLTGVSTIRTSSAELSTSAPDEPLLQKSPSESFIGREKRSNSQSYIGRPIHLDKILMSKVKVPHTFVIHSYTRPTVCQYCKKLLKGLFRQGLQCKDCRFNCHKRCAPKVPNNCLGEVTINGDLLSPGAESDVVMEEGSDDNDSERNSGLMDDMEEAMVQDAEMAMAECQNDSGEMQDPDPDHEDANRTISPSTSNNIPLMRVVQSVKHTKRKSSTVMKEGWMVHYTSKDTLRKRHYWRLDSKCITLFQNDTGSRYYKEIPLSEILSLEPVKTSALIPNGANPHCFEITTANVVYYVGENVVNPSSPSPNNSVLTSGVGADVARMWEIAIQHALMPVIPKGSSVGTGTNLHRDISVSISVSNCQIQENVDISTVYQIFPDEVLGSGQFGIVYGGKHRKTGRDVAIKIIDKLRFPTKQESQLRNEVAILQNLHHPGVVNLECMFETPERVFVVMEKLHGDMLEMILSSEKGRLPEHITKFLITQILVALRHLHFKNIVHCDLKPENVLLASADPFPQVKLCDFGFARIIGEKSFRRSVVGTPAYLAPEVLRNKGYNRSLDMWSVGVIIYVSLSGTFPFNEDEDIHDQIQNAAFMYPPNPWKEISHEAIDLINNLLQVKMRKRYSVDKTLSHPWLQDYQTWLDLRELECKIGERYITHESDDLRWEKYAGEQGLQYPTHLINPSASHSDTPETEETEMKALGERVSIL
Experiment: PKD1 TR-FRET (LANCE) kinase assay
Settings: full length wild-type enzyme, 20 μM ATP; read-out: Inhibitory Activity PKD1
pIC50: −log10 of the molar value.
Lab note: compare pIC50 against 7. Equal or greater, write true. Smaller, write false.

Worked examples, 10 compounds total:
| compound | targetSystem | classAssignment |
| --- | --- | --- |
| CN(C)CC1CCN(c2nc(-c3ccnc(NC4CCCCC4)c3)cc3cnccc23)CC1 [Example 12] | protein kinase D1 (PKD1) (Homo sapiens) | false |
| c1cc2c(NC3CCNC3)nc(-c3ccnc(NC4CCCCC4)c3)cc2cn1 (stereo not drawn) [Example 14] | protein kinase D1 (PKD1) (Homo sapiens) | true |
| Cn1ccc(Nc2cc(-c3cc4cnccc4c(N4CCC5(CCNC5=O)CC4)n3)ccn2)n1 [Example 20] | protein kinase D1 (PKD1) (Homo sapiens) | true |
| COCCNc1cc(-c2cc3cnccc3c(N3CCNCC3)n2)ccn1 [Example 21] | protein kinase D1 (PKD1) (Homo sapiens) | true |
| c1ccc(Nc2cc(-c3cc4cnccc4c(N4CCNCC4)n3)ccn2)cc1 [Example 4] | protein kinase D1 (PKD1) (Homo sapiens) | true |
| c1cc2c(N3CCNCC3)nc(-c3ccnc(NC4CCCCC4)c3)cc2cn1 [Example 3] | protein kinase D1 (PKD1) (Homo sapiens) | true |
| CNc1cc(-c2cc3cnccc3c(NC)n2)ccn1 [Example 2] | protein kinase D1 (PKD1) (Homo sapiens) | false |
| COc1cccc(Nc2cc(-c3cc4cnccc4c(NCCO)n3)ccn2)c1 [Example 7] | protein kinase D1 (PKD1) (Homo sapiens) | true |
| O=C(NC1CC1)C1CCN(c2nc(-c3ccnc(NC4CCOCC4)c3)cc3cnccc23)CC1 [Example 17] | protein kinase D1 (PKD1) (Homo sapiens) | true |
| CNc1cc(-c2cc3cnccc3c(NCCCO)n2)ccn1 [Example 1] | protein kinase D1 (PKD1) (Homo sapiens) | false |

Consider the record given below.
Query :: Threshold query (pIC50 >= 7) on CN(C)CCNc1nc(-c2ccnc(NC3CCCCC3)c2)cc2cnccc12 [Example 8]
Result :: true
